Tested on: U2OS
Assay: Multiplex assay against U2OS
Format: toxicity, cell-based
Settings: human, 48 h, 1 µM, compound concentration 1 uM, replicate 1
Assign labels as follows, please: T for Population Fragmented Nuclei (%) below 7%; F for Population Fragmented Nuclei (%) equal to or exceeding 7%.

| COMPOUND | SYSTEM_NAME | ASSIGNED_LABEL |
| --- | --- | --- |
| CS(=O)(=O)N1CCCC(NC(=O)[C@H](CCC2CCCCC2)NC(=O)c2ccc(CNc3ncnc4c3nnn4-c3ccccc3)cc2)C1 (some centres not stated) [SR-301] | U2OS | T |
| CN1C(=O)[C@@H](NC(=O)c2cc3ccccc3[nH]2)N=C(c2ccccc2)c2ccccc21 [DEVAZEPIDE] | U2OS | F |
| CC(/C=C1\SC(=S)N(CCCC(=O)Nc2ccc(C(=O)O)c(O)c2)C1=O)=C\c1ccccc1 | U2OS | T |
| N#Cc1cccc(C(=O)Nc2cc(-c3ccccc3)nn2-c2ccccc2)c1 | U2OS | F |
| CC(Cc1ccc(O)c(O)c1)C(C)Cc1ccc(O)c(O)c1 (configuration not stated) [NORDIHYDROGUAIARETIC ACID] | U2OS | F |

Next up:
Does the reported Population Fragmented Nuclei (%) of CC(C)[C@H](CO)Nc1nc(Nc2cccc(Cl)c2)c2ncn(C(C)C)c2n1 [PURVALANOLA] stay below 7%?
F

----------
Tested on: HEK-293T
Assay: Multiplex assay against HEK293T
Assay type: toxicity, cell-based
Settings: human, 24 h, 10 µM, compound concentration 10 uM, replicate 1
OBSERVATION_TYPE: Total Cell Count
Note: the reply should be a number with no unit written.

| COMPOUND | READOUT_VALUE |
| --- | --- |
| CC(C)C[C@H](NC(=O)[C@H](Cc1ccccc1)NC(=O)CNC(=O)CNC(=O)[C@@H](N)Cc1ccc(O)cc1)C(=O)O | 250 |
| CCOC(=O)CCNc1cc(N2CCc3ccccc3CC2)nc(-c2ccccn2)n1 | 535 |
| CC(Cc1ccc(O)c(O)c1)C(C)Cc1ccc(O)c(O)c1 (centres undefined) [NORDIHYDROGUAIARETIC ACID] | 192 |

Find the recorded Total Cell Count belonging to CCCc1cc(C)[nH]c(=O)c1CNC(=O)c1cc(-c2ccc(N3CCN(C(C)C)CC3)nc2)cc2c1cnn2C(C)C and report it.
236

----------
Tested on: Fibroblast
Experiment: Multiplex assay against human fibroblast
Format: toxicity, cell-based
Details: 12 h, 10 µM, compound concentration 10 uM, replicate 1
OBSERVATION_TYPE: Population Membrane Permeable-Phenotype (%)
State the answer as a number, implicitly in %.

# count of solved cases: 4
| COMPOUND | READOUT_VALUE |
| --- | --- |
| CCCCCNC(=N)N/N=C/c1c[nH]c2ccc(OC)cc12.O=C(O)/C=C\C(=O)O [TEGASEROD MALEATE] | 6 |
| CN(c1cc(C(F)(F)F)nc(OCCC(=O)O)n1)c1cccc2c1CCC2 | 25 |
| CC[C@@H]1C(=O)N(C)c2cnc(Nc3ccc(C(=O)NC4CCN(C)CC4)cc3OC)nc2N1C1CCCC1 [BI-2536] | 2 |
| COc1cc(C)c(Sc2cnc(NC(=O)c3ccc(CNC(C)C(C)(C)C)cc3)s2)cc1C(=O)N1CCN(C(C)=O)CC1 (stereo not given) | 6 |

Attention now shifts to the item below.
Find the recorded Population Membrane Permeable-Phenotype (%) belonging to c1ccc(-c2oc3ncnc(NC[C@@H]4CCCO4)c3c2-c2ccccc2)cc1 and report it.
21
